Test system: ulcerative colitis model (dextran sodium sulphate)
Experiment: Effect example 2: therapeutic effect on ulcerative colitis, dextran sodium sulphate model, oral gavage, 14 days
Format: in vivo, C57 mice
Conditions: Day 3; treatment group 40 mg/kg oral gavage
PROPERTY NAME: Average weight of mice (g)

>  <STRUCTURE NOTATION>
CC(C)=C1OC(C)=C(O[C@@H]2O[C@H](COC(=O)C(C)(C)C)[C@@H](OC(=O)C(C)(C)C)[C@H](OC(=O)C(C)(C)C)[C@H]2OC(=O)C(C)(C)C)C1=O

>  <PROPERTY NAME>
Average weight of mice

>  <QUANTITATIVE RESULT>
26.9

$$$$
>  <STRUCTURE NOTATION>
COC(=O)[C@H]1O[C@@H](OC2=C(C)OC(=C(C)C)C2=O)[C@H](OC(C)=O)[C@@H](OC(C)=O)[C@@H]1OC(C)=O

>  <PROPERTY NAME>
Average weight of mice

>  <QUANTITATIVE RESULT>
26.88

$$$$
>  <STRUCTURE NOTATION>
CC(=O)OC[C@H]1O[C@@H](OC2=C(C)OC(=C(C)C)C2=O)[C@H](OC(C)=O)[C@@H](OC(C)=O)[C@H]1OC(C)=O

>  <PROPERTY NAME>
Average weight of mice

>  <QUANTITATIVE RESULT>
26.72

$$$$
>  <STRUCTURE NOTATION>
CC(=O)OC[C@H]1O[C@@H](OC2=C(C)OC(=C(C)C)C2=O)[C@H](OC(C)=O)[C@@H](OC(C)=O)[C@@H]1OC(C)=O

>  <PROPERTY NAME>
Average weight of mice

>  <QUANTITATIVE RESULT>
26.82

$$$$

* * *

Test system: ulcerative colitis model (dextran sodium sulphate)
Assay: Effect example 2: therapeutic effect on ulcerative colitis, dextran sodium sulphate model, oral gavage, 14 days
Assay type: in vivo, C57 mice
Conditions: Day 14; treatment group 40 mg/kg oral gavage

>  <STRUCTURE NOTATION>
CC(C)=C1OC(C)=C(O[C@@H]2O[C@H](COC(=O)C(C)(C)C)[C@@H](OC(=O)C(C)(C)C)[C@H](OC(=O)C(C)(C)C)[C@H]2OC(=O)C(C)(C)C)C1=O

>  <Average weight of mice [g]>
24.5

$$$$
>  <STRUCTURE NOTATION>
CC(=O)OC[C@H]1O[C@@H](OC2=C(C)OC(=C(C)C)C2=O)[C@H](OC(C)=O)[C@@H](OC(C)=O)[C@H]1OC(C)=O

>  <Average weight of mice [g]>
24.68

$$$$
>  <STRUCTURE NOTATION>
CC(=O)OC[C@H]1O[C@@H](OC2=C(C)OC(=C(C)C)C2=O)[C@H](OC(C)=O)[C@@H](OC(C)=O)[C@@H]1OC(C)=O

>  <Average weight of mice [g]>
24.92

$$$$
>  <STRUCTURE NOTATION>
COC(=O)[C@H]1O[C@@H](OC2=C(C)OC(=C(C)C)C2=O)[C@H](OC(C)=O)[C@@H](OC(C)=O)[C@@H]1OC(C)=O

>  <Average weight of mice [g]>
24.68

$$$$

* * *

Tested on: ulcerative colitis model (dextran sodium sulphate)
Test: Effect example 2: therapeutic effect on ulcerative colitis, dextran sodium sulphate model, oral gavage, 14 days
Type: in vivo, C57 mice
Conditions: Day 2; treatment group 40 mg/kg oral gavage
Method: Thirty-five 10-week-old male C57 mice, SPF class animal house, temperature 20-26° C., humidity 40%-70%, alternating light-dark periods (12 h/12 h). Quarantine-qualified animals with similar weights were selected for the experiment. […] (3) On day 14, the mice were sacrificed by cervical vertebra dislocation, the colon was removed and a small amount of fecal was taken from the colon and left as a sample. The colon length and colon weight were measured. […]
Reported Average weight of mice values follow for various compounds

>  <COMPOUND>
COC(=O)[C@H]1O[C@@H](OC2=C(C)OC(=C(C)C)C2=O)[C@H](OC(C)=O)[C@@H](OC(C)=O)[C@@H]1OC(C)=O [Compound I-5]

>  <Average weight of mice (g)>
26.92

$$$$
>  <COMPOUND>
CC(=O)OC[C@H]1O[C@@H](OC2=C(C)OC(=C(C)C)C2=O)[C@H](OC(C)=O)[C@@H](OC(C)=O)[C@H]1OC(C)=O [Compound I-4]

>  <Average weight of mice (g)>
26.76

$$$$
>  <COMPOUND>
CC(C)=C1OC(C)=C(O[C@@H]2O[C@H](COC(=O)C(C)(C)C)[C@@H](OC(=O)C(C)(C)C)[C@H](OC(=O)C(C)(C)C)[C@H]2OC(=O)C(C)(C)C)C1=O [Compound I-6]

>  <Average weight of mice (g)>
26.94

$$$$
>  <COMPOUND>
CC(=O)OC[C@H]1O[C@@H](OC2=C(C)OC(=C(C)C)C2=O)[C@H](OC(C)=O)[C@@H](OC(C)=O)[C@@H]1OC(C)=O [Compound I-2]

>  <Average weight of mice (g)>
26.9

$$$$
